- assay_info: Blood-to-plasma partition (B/P)
- Assay type: in vitro ADME, human
- test_settings: human, whole blood and plasma prepared from it; 3 ng/mL

| smiles | blood plasma ratio at 3 ng/mL |
| --- | --- |
| CNc1nc(-c2cccc(NC(=O)c3ccc(C(=O)OC)cc3)c2)c2cc(OC)c(OC)cc2n1 | 0.69 |
| CNc1nc(-c2cccc(NC(=O)c3ccc(C(=O)O)cc3)c2)c2cc(OC)c(OC)cc2n1 | 0.594 |

* * *

- assay_info: Blood-to-plasma partition (B/P)
- Format: in vitro ADME, human
- test_settings: human, whole blood and plasma prepared from it; 160 ng/mL
metric_name: blood plasma ratio at 160 ng/mL

| smiles | data_value |
| --- | --- |
| CNc1nc(-c2cccc(NC(=O)c3ccc(C(=O)O)cc3)c2)c2cc(OC)c(OC)cc2n1 | 0.574 |
| CNc1nc(-c2cccc(NC(=O)c3ccc(C(=O)OC)cc3)c2)c2cc(OC)c(OC)cc2n1 | 0.669 |
